# Tested on: delayed type asthmatic response
# protocol notes: Effect on experimental delayed type asthma model in guinea pigs (airway resistance)
# Type: in vivo, guinea pig (male hartley guinea pigs)
# condition notes: 0.5 mg/kg i.v., 1 hour before and 3 hours after challenge; AUC of airway resistance change 4-8 hours after challenge
Use true (1) when the recorded delayed type asthma inhibition (%) is no lower than 60%; use false (0) when it is lower.

Task: Form field: delayed type asthma inhibition (%) at least 60%? Entry: CCCCCCCCOc1c(O[C@@H]2O[C@H](C(=O)O)[C@@H](O)[C@H](O)[C@H]2O)c2ccc(NC(=O)/C=C/c3cc(OC)c(O[C@@H]4O[C@H](C(=O)O)[C@@H](O)[C@H](O)[C@H]4O)c(OC)c3)cc2n(C)c1=O
Result: true (1)

Task: Same question for CCCCCCCCOc1c(O[C@H]2O[C@H](CO)[C@@H](O)[C@H](O)[C@@H]2O)c2ccc(NC(=O)/C=C/c3cc(OC)c(O[C@H]4O[C@H](CO)[C@@H](O)[C@H](O)[C@@H]4O)c(OC)c3)cc2n(C)c1=O please.
Result: false (0)

Task: Same question for CCCCCCCCOc1c(O[C@@H]2O[C@H](C(=O)O)[C@@H](O)[C@H](O)[C@H]2O)c2ccc(NC(=O)/C=C/c3cc(OC)c(O)c(OC)c3)cc2n(C)c1=O please.
Result: false (0)

Task: Same question for CCCCCCCCOc1c(O[C@@H]2O[C@H](CO)[C@H](O)[C@H](O)[C@H]2O)c2ccc(NC(=O)/C=C/c3cc(OC)c(O[C@@H]4O[C@H](CO)[C@H](O)[C@H](O)[C@H]4O)c(OC)c3)cc2n(C)c1=O please.
Result: true (1)
